Tested on: Escherichia coli
assay details: Antibacterial activity against Escherichia coli ATCC 26032 after 24 hrs by two fold serial dilution method
Format: functional
conditions used: ATCC 26032, 24 h
measured endpoint: MIC (µg/mL)
Numbers only, in µg/mL.

Give me MIC for each of these compounds, listed below.
1. C=CCN1[C@H](c2ccccc2)C/C(=N\O)[C@@H](C)[C@@H]1c1ccccc1 (relative stereo)
2. C=CCN1[C@H](c2ccccc2)[C@@H](C)/C(=N/O)[C@@H](C)[C@@H]1c1ccccc1 (relative stereo)
3. C=CCN1[C@H](c2ccccc2)[C@@H](C)C(=O)[C@@H](C)[C@@H]1c1ccccc1
4. CN[C@@H]1[C@H](O[C@H]2[C@H](O[C@H]3[C@H](O)[C@@H](O)[C@H](N=C(N)N)[C@@H](O)[C@@H]3N=C(N)N)O[C@@H](C)[C@]2(O)C=O)O[C@@H](CO)[C@H](O)[C@H]1O
5. C=CCN1[C@@H](c2ccccc2)C/C(=N/O)C[C@H]1c1ccccc1 (relative stereo)

### Response
1. 50
2. 50
3. 100
4. 12.5
5. 25

Below is a list of compounds. For each, state its recorded MIC.
1. C=CCN1[C@@H](c2ccccc2)C(C)(C)/C(=N/OCc2ccccc2)C[C@H]1c1ccccc1 (relative stereo)
2. C=CCN1[C@H](c2ccccc2)CC(=O)[C@@H](C)[C@@H]1c1ccccc1 (relative stereo)
3. C=CCN1[C@H](c2ccc(OC)cc2)CC(=O)[C@@H](C)[C@@H]1c1ccc(OC)cc1 (relative stereo)
4. C=CCN1[C@H](c2ccc(Cl)cc2)C/C(=N\OCc2ccccc2)[C@@H](C)[C@@H]1c1ccc(Cl)cc1 (relative stereo)

### Response
1. 50
2. 100
3. 50
4. 12.5

The origin of these recorded values is ChEMBL document CHEMBL2157909.
